- Assayed system: human EGF receptor 1 (EGFR) as used in the SPR rate analysis (UniProt P00533 25-645, limits assumed)
- Experiment description: SPR rate analysis of scFv
Collected Ka values appear next to each entry.
Give the value in M⁻¹ but do not write M⁻¹ after it.

If you can, please state the reported Ka value of lysine-substituted single-chain antibody "LK" containing VH0K and VL1K (L108 re-replaced with lysine) (scFv, Expressed in E. coli; also called VH0K VL1K) scFv: QVQLVQSGAEVAEPGASVQVSCAASGYTFTSYWMHWVRQAPGQGLEWMGNIYPGSGGTNYAEEFQNRVTMTRDTSISTAYMELSRLRSDDTAVYYCARSGGPYFFDYWGQGTLVTVSSGGGGSGGGGSGGGGSDIVMTQSPLSLPVTPGEPASISCRSSQNIVHNNGITYLEWYLQRPGQSPQLLIYQVSDRFSGVPDRFSGSGSGTDFTLTISRVEAEDVGVYYCFQGSHIPPTFGQGTKVEIERHHHHHH .
8.34e+06

Next:
If you can, please state the reported Ka value of lysine-substituted single-chain antibody "OK" containing VH0K and VL0K (all lysine residues replaced) (scFv, Expressed in E. coli; also called VH0K VL0K) scFv: QVQLVQSGAEVAEPGASVQVSCAASGYTFTSYWMHWVRQAPGQGLEWMGNIYPGSGGTNYAEEFQNRVTMTRDTSISTAYMELSRLRSDDTAVYYCARSGGPYFFDYWGQGTLVTVSSGGGGSGGGGSGGGGSDIVMTQSPLSLPVTPGEPASISCRSSQNIVHNNGITYLEWYLQRPGQSPQLLIYQVSDRFSGVPDRFSGSGSGTDFTLTISRVEAEDVGVYYCFQGSHIPPTFGQGTEVEIERHHHHHH .
7.32e+06

Now this one: h528scFv, single-chain antibody of the humanized anti-human EGF receptor 1 (Her1) antibody 528 before lysine substitution (scFv, also called PC) scFv: QVQLVQSGAEVKKPGASVKVSCKASGYTFTSYWMHWVRQAPGQGLEWMGNIYPGSGGTNYAEKFKNRVTMTRDTSISTAYMELSRLRSDDTAVYYCARSGGPYFFDYWGQGTLVTVSSAGGGGSDIVMTQSPLSLPVTPGEPASISCRSSQNIVHNNGITYLEWYLQKPGQSPQLLIYKVSDRFSGVPDRFSGSGSGTDFTLKISRVEAEDVGVYYCFQGSHIPPTFGQGTKVEIKRAAAAEQKLISEEDLNLGGGMRGSHHHHHH
2.61e+07

Now this one: lysine-substituted single-chain antibody "HK" containing VH1K and VL0K (H19 re-replaced with lysine) (scFv, Expressed in E. coli; also called VH1K VL0K) scFv: QVQLVQSGAEVAEPGASVKVSCAASGYTFTSYWMHWVRQAPGQGLEWMGNIYPGSGGTNYAEEFQNRVTMTRDTSISTAYMELSRLRSDDTAVYYCARSGGPYFFDYWGQGTLVTVSSGGGGSGGGGSGGGGSDIVMTQSPLSLPVTPGEPASISCRSSQNIVHNNGITYLEWYLQRPGQSPQLLIYQVSDRFSGVPDRFSGSGSGTDFTLTISRVEAEDVGVYYCFQGSHIPPTFGQGTEVEIERHHHHHH
8.82e+06
